# Tested on: SNB-75 CNS
# Measurement protocol: NCI tumour cell line growth inhibition, 48 h
Readout label: log10 of TGI (log10 of the value in µM)
Hey, these are logged values: log10 of TGI, µM being the unit before logging.

Please review the following examples before continuing.
[
  {
    "Compound": "O=C(CCN1CCCC1)Nc1ccc2c(NCCc3ccccc3)c3ccccc3nc2c1",
    "log10 of TGI": 0.23
  },
  {
    "Compound": "Cc1c2cccc-2c(OCCOC(=O)n2ccnc2)cc2c1[nH]c1ccccc12",
    "log10 of TGI": 0.48
  },
  {
    "Compound": "Cc1ccc2c(=O)cc(Cc3csc4ccccc34)[nH]c2n1",
    "log10 of TGI": 1.90
  },
  {
    "Compound": "COc1cc(-c2nc3cc(Cl)c(Cl)cc3[nH]2)ccc1OCC(=O)N=Nc1c(O)[nH]c2ccc(Cl)cc12",
    "log10 of TGI": 0.59
  },
  {
    "Compound": "O=C1/C(=C/c2ccc(Cl)cc2)CN(C(=O)CCN2CCC(=NO)CC2)C/C1=C\\c1ccc(Cl)cc1",
    "log10 of TGI": 0.42
  }
]

Measured log10 of TGI of CCCCCCCCCCCCCCCC(=O)OCC1OC(OC)C(NC(=O)N(CCCl)N=O)C(O)C1O (stereo not drawn) : 1.59

For this compound ( `COC1=CC(=O)c2nc3ccccc3c3ccnc1c23` ), measured log10 of TGI is 1.66

log10 of TGI measured on CCCCCCCCCCCC1=NC(C)(C)CN1CC(C)O (stereo not drawn) = 1.33

Form: compound = O=C1c2cc3c(cc2CC1Cc1ccc2c(c1)CCC2)CCC3 (stereo not drawn) ; log10 of TGI = 1.88

Just so you know, measured log10 of TGI for `Clc1ccc2nc(Cl)c3ccccc3c2c1` came out at 0.91

Recorded result, O=C1CC(c2ccsc2)c2snc(-c3ccc(Cl)cc3)c2N1 (stereo not drawn) , log10 of TGI: 0.99

// log10 of TGI lookup, compound = `O=C(Nc1ccc(Nc2ccncc2)cc1)c1ccc(Nc2ccnc3ccc([N+](=O)[O-])cc23)cc1[N+](=O)[O-]` , result: 1.70

Data point: `O=C1CCSC(=S)N1c1ccc(Br)c(Cl)c1` ; log10 of TGI = 1.72

Item: c1ccc2c(c1)Sc1ccccc1N2C1CN2CCC1CC2 (stereo not drawn) | log10 of TGI: 1.40

The recorded log10 of TGI for entry `Cc1ccc(-c2cc(-c3ccc(C)cc3)nc(N3CCN(CCNc4ccnc5cc(Cl)ccc45)CC3)n2)cc1` equals 0.35

Input `COc1cc(OC)c(F)c(COc2cnc(Nc3cnn(CCO)c3)nc2)c1F` . Output log10 of TGI: 0.37
